Origin of values: patent US20240116985A1

# ASSAY EXPLANATION: CHI Log D procedure
# Assay type: physicochemical
# TEST SETTINGS: pH 7.4, CHI Log D
Some molecules, each annotated with its measured chromatographic logD.
Keep the answer to the number alone.

[[record]]
molecule = "CC(=O)N1CCC[C@]12CC=CCCCC1(CCCC=CCCCCCC[C@@](C)(C(=O)N[C@@H](Cc3ccccc3)C(=O)N[C@@H](Cc3ccc4ccccc4c3)C(=O)N[C@@H](C)C(N)=O)NC(=O)[C@H](C)NC(=O)[C@H](Cc3ccc(F)c(F)c3)NC(=O)[C@H](C)NC(=O)[C@H](C)NC(=O)[C@H](CCC(=O)O)NC(=O)[C@H](CC(=O)O)NC1=O)NC(=O)[C@H](C)NC(=O)[C@H](CC(=O)O)NC2=O (stereo partly shown)"
test_readout = "chromatographic logD"
reported_result = 2.3


For CC(=O)N1CCC[C@]12CC=CCCCC1(CCCC=CCCCOC(=O)N3CC[C@@](C(=O)N[C@@H](Cc4ccccc4Cl)C(=O)N[C@@H](Cc4csc5ccccc45)C(=O)N[C@H](CO)[C@@H](C)O)(C3)NC(=O)[C@H](CC(N)=O)NC(=O)[C@H](Cc3ccccc3)NC(=O)[C@H](C)NC(=O)[C@H](C)NC(=O)[C@H](CC(=O)O)NC(=O)[C@H](CC(=O)O)NC1=O)NC(=O)[C@H](CC(C)(C)C)NC(=O)[C@H](CC(=O)O)NC2=O (stereo partly shown) , what is its reported chromatographic logD? 2.33

For CC(=O)N[C@@H](Cc1ccccc1)C(=O)N[C@@H](CC(=O)O)C(=O)N[C@]1(C)CCN(C)C(=O)OCC=CCCCCC[C@@](C)(C(=O)N[C@@H](C)C(=O)N[C@@H](Cc2ccccc2)C(=O)N[C@@H](Cc2c[nH]c3ccccc23)C(=O)N[C@@H](CCC(N)=O)C(N)=O)NC(=O)[C@H](Cc2ccccc2)NC(=O)[C@H](C)NC(=O)[C@H](C)NC(=O)[C@H](CC(=O)O)NC(=O)[C@H](CC(=O)O)NC(=O)[C@H](C)NC1=O (single isomer, unassigned) , what is its reported chromatographic logD? 1.18

For CC(=O)N1CCC[C@]12CC=CCCCC1(CCCC=CCCCCCC[C@@](C)(C(=O)N[C@@H](Cc3ccccc3)C(=O)N[C@@H](Cc3c[nH]c4ccccc34)C(=O)N[C@@H](CCC(N)=O)C(N)=O)NC(=O)[C@H](C(C)C)NC(=O)[C@H](Cc3cccs3)NC(=O)[C@H](C)NC(=O)[C@H](C)NC(=O)[C@H](CC(=O)O)NC(=O)[C@H](CC(=O)O)NC1=O)NC(=O)[C@H](C)NC(=O)[C@H](CC(=O)O)NC2=O (stereo partly shown) , what is its reported chromatographic logD? 1.98

----------
# TESTED TARGET: full-length beta-Catenin (Uniprot ID P35222) (Homo sapiens)
# Construct: 10 nM full-length beta-Catenin (Uniprot ID P35222)
# Sequence (P35222 whole entry): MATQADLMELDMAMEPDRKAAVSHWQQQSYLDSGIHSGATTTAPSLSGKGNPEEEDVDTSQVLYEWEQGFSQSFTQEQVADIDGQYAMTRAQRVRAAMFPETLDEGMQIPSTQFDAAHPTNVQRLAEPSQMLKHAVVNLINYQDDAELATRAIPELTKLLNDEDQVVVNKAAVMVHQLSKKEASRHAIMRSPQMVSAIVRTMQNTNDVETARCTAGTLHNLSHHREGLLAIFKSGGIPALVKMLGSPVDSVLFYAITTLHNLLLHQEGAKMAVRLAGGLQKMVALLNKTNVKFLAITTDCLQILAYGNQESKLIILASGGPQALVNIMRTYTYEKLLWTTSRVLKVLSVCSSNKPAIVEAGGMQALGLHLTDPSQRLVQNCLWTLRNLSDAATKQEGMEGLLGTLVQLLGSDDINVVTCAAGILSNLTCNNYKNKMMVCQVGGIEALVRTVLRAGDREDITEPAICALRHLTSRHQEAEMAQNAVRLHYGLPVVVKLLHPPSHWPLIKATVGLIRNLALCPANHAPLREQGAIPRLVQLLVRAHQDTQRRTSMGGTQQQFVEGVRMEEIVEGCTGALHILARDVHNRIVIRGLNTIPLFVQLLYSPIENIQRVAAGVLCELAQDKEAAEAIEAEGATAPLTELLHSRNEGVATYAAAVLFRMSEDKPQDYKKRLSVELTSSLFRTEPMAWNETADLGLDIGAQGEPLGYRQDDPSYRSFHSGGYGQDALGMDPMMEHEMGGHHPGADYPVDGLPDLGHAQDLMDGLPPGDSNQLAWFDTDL
# ASSAY EXPLANATION: Fluorescence polarization IC50 (beta-catenin / 5FAM-TCF4 10-53 competition)
# Format: binding
# TEST SETTINGS: fluorescence polarization; read-out: beta-Catenin FP IC50
Some compounds, each annotated with its measured IC50.
Provide only the numeric value, understood in nM.

Below are worked cases with known answers.
[[record]]
compound = "CC[C@H](C)[C@@H]1NC(=O)[C@H](CC(=O)O)NC(=O)[C@]2(CC=CCCCC3(CCCC=CCCCCCC[C@@](C)(C(=O)N[C@@H](Cc4ccccc4)C(=O)N[C@@H](Cc4csc5ccccc45)C(=O)N[C@@H](Cc4c[nH]cn4)C(N)=O)NC(=O)[C@H](CCC(N)=O)NC(=O)[C@H](Cc4cccs4)NC(=O)[C@H](C)NC(=O)[C@H](C)NC(=O)[C@H](CC(=O)O)NC(=O)[C@H](CC(=O)O)NC3=O)NC1=O)CCCN2C(C)=O (some centres unmarked) [I-489]"
reported_result = 57

[[record]]
compound = "COCCOCCC(=O)N1CCC[C@]12CC=CCCCC1(CCCC=CCCCOC(=O)N3CC[C@@](C(=O)N[C@@H](Cc4ccccc4Cl)C(=O)N[C@@H](Cc4csc5ccccc45)C(=O)N[C@@H](C(N)=O)[C@H](C)O)(C3)NC(=O)[C@H](CC(N)=O)NC(=O)[C@H](Cc3ccccc3)NC(=O)[C@H](C)NC(=O)[C@H](C)NC(=O)[C@H](CC(=O)O)NC(=O)[C@H](CC(=O)O)NC1=O)NC(=O)[C@H](CC(C)(C)C)NC(=O)[C@H](CC(=O)O)NC2=O (some centres unmarked) [I-1253]"
reported_result = 14

[[record]]
compound = "CC(=O)N1CCC[C@]12CC=CCCCC1(CCCC=CCCCOC(=O)N3CC[C@@](C(=O)N[C@@H](Cc4ccsc4)C(=O)N[C@@H](Cc4csc5ccccc45)C(=O)N[C@@H](CCC(N)=O)C(N)=O)(C3)NC(=O)[C@H](CC(C)C)NC(=O)[C@H](Cc3ccccc3)NC(=O)[C@H](C)NC(=O)[C@H](C)NC(=O)[C@H](Cn3cc(CC(=O)O)nn3)NC(=O)[C@H](CC(=O)O)NC1=O)NC(=O)[C@H](CC(C)(C)C)NC(=O)[C@H](CC(=O)O)NC2=O (some centres unmarked) [I-2084]"
reported_result = 5


For CC(=O)N1CCC[C@]12CC=CCCCC1(CCCC=CCCCCCC[C@@](C)(C(=O)N[C@@H](Cc3ccsc3)C(=O)N[C@@H](Cc3csc4ccccc34)C(=O)N[C@@H](CCC(N)=O)C(N)=O)NC(=O)[C@H](CC(N)=O)NC(=O)[C@H](Cc3ccccc3)NC(=O)[C@H](C)NC(=O)[C@H](C)NC(=O)[C@H](CN(CCCC(F)(F)F)CC(=O)O)NC(=O)[C@H](CC(=O)O)NC1=O)NC(=O)[C@H](CC(C)(C)C)NC(=O)[C@H](CC(=O)O)NC2=O (some centres unmarked) [I-1454] , what is its reported IC50? 22

For CC(=O)N1CCC[C@]12CC=CCCCC1(CCCC=CCCCOC(=O)N3CC[C@@](C(=O)N[C@@H](Cc4ccccc4F)C(=O)N[C@@H](Cc4csc5ccccc45)C(=O)N[C@@H](CCC(N)=O)C(N)=O)(C3)NC(=O)[C@H](CC(C)C)NC(=O)[C@H](Cc3ccccc3)NC(=O)[C@H](C)NC(=O)[C@H](C)NC(=O)[C@H](CC(=O)O)NC(=O)[C@H](CC(=O)O)NC1=O)NC(=O)[C@H](CC(C)(C)C)NC(=O)[C@H](CC(=O)O)NC2=O (some centres unmarked) [I-1321] , what is its reported IC50? 8

----------
# ASSAY EXPLANATION: CHI Log D procedure
# Format: physicochemical
# TEST SETTINGS: pH 7.4
TEST READOUT: CHI Log D

[[record]]
compound = "CC[C@H](C)[C@@H]1NC(=O)[C@H](CC(=O)O)NC(=O)[C@]2(CC=CCCCC3(CCCC=CCCCCCC[C@@](C)(C(=O)N[C@@H](Cc4ccccc4OC)C(=O)N[C@@H](Cc4csc5ccccc45)C(=O)N[C@@H](CCC(N)=O)C(N)=O)NC(=O)[C@H](CCC(N)=O)NC(=O)[C@H](Cc4ccccc4)NC(=O)[C@H](C)NC(=O)[C@H](C)NC(=O)[C@H](CCC(=O)O)NC(=O)[C@H](CC(=O)O)NC3=O)NC1=O)CCCN2C(C)=O (some centres unmarked) [I-527]"
reported_result = 2.376


For CC(=O)N1CCC[C@]12CC=CCCCC1(CCCC=CCCCCCC[C@@](C)(C(=O)N[C@@H](Cc3ccccc3)C(=O)N[C@@H](Cc3csc4ccccc34)C(=O)N[C@@H](CCC(N)=O)C(N)=O)NC(=O)[C@H](CCC(N)=O)NC(=O)[C@H](Cc3ccccc3)NC(=O)[C@H](C)NC(=O)[C@H](C)NC(=O)[C@H](CCC(=O)O)NC(=O)[C@H](CC(=O)O)NC1=O)NC(=O)[C@H](CCCCNC(=O)CN=[N+]=[N-])NC(=O)[C@H](CC(=O)O)NC2=O (some centres unmarked) [I-590] , what is its reported CHI Log D? 2.152

For CC(=O)N1CCC[C@]12CC=CCCCC1(CCCC=CCCCCCC[C@@](C)(C(=O)N[C@@H](Cc3ccccc3)C(=O)N[C@@H](Cc3c[nH]c4ccccc34)C(=O)N[C@@H](CCC(N)=O)C(N)=O)NC(=O)[C@H](C(C)C)NC(=O)[C@H](Cc3cn(C)cn3)NC(=O)[C@H](C)NC(=O)[C@H](C)NC(=O)[C@H](CC(=O)O)NC(=O)[C@H](CC(=O)O)NC1=O)NC(=O)[C@H](C)NC(=O)[C@H](CC(=O)O)NC2=O (some centres unmarked) [I-330] , what is its reported CHI Log D? 2.047

For CC[C@H](C)[C@@H]1NC(=O)[C@H](CC(=O)O)NC(=O)[C@]2(CC=CCCCC3(CCCC=CCCCCCC[C@@](C)(C(=O)N[C@@H](Cc4ccccc4)C(=O)N[C@@H](Cc4csc5ccccc45)C(=O)N[C@@H](CCC(N)=O)C(N)=O)NC(=O)[C@H](CCC(N)=O)NC(=O)[C@H](Cc4ccccc4)NC(=O)[C@H](C)NC(=O)[C@H](C)NC(=O)[C@H](CCCNC(N)=O)NC(=O)[C@H](CC(=O)O)NC3=O)NC1=O)CCCN2C(C)=O (some centres unmarked) [I-605] , what is its reported CHI Log D? 2.617

For CC(=O)N[C@@H](Cc1ccccc1)C(=O)N[C@@H](CC(=O)O)C(=O)N[C@@H](C)C(=O)NC12CN(C1)C(=O)OCC=CCCCCC[C@@](C)(C(=O)N[C@@H](Cc1ccccc1)C(=O)N[C@@H](Cc1c[nH]c3ccccc13)C(=O)N[C@@H](CCC(N)=O)C(N)=O)NC(=O)[C@H](C(C)C)NC(=O)[C@H](Cc1ccccc1)NC(=O)[C@H](C)NC(=O)[C@H](C)NC(=O)[C@H](CC(=O)O)NC(=O)[C@H](CC(=O)O)NC2=O [I-33] , what is its reported CHI Log D? 1.228
